MEASUREMENT TARGET: Hepatocyte nuclear factor 3-beta (Homo sapiens) (UniProt Q9Y261)
Sequence (Q9Y261 whole entry, looked up): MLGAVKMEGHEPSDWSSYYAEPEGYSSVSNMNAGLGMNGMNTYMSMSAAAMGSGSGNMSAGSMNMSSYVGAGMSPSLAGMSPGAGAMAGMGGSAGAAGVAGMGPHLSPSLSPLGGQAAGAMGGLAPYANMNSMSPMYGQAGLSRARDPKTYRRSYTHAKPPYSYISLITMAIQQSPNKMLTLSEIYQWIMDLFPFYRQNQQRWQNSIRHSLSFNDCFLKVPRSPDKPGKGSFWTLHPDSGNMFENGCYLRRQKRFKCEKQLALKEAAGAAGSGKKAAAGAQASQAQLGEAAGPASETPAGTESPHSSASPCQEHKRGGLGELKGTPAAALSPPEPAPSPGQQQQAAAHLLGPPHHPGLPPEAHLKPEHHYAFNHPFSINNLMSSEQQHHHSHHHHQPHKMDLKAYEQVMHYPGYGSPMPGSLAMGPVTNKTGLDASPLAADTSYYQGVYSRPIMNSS
TEST: ATG_FoxA2_CIS: Attagene CIS-FACTORIAL HepG2 Assay for human Forkhead box A2 (FOXA2) (AID 2282942)
CONDITION NOTES: HepG2 cis-reporter transcription factor activity, 24 h; actives raise or lower the signal
Active and inactive are the calls of the source. The calls were made as follows: active = hit-call score of the fitted dose curve at least 0.9, where 1 is the maximum; inactive = score below 0.9.
EXPERIMENTAL ENDPOINT: AC50

>>> value_measured("Nc1ccn([C@@H]2O[C@H](CO)[C@@H](O)C2O)c(=O)n1 (stereo partly specified)")
"inactive"
>>> value_measured("CCCCc1ccc2ccccc2c1S(=O)(=O)O")
"inactive"
>>> value_measured("Oc1cccc2c(O)cccc12")
"0.0859 µM (active)"
>>> value_measured("CCCCCCCCC1CCC(=O)O1 (stereo unspecified)")
"inactive"
>>> value_measured("Cc1cc(Cc2cc(C)cc(C(C)(C)C)c2O)c(O)c(C(C)(C)C)c1")
"128 µM (active)"

Continue with the molecule presented below.
Prompt line: Lab request: please report AC50 under test system Hepatocyte nuclear factor 3-beta (Homo sapiens) (UniProt Q9Y261) for CCCCCCCCCCCCCC[n+]1ccccc1
Response line: 18.2 µM (active)

====

TEST: BSK_CASM3C_SRB: Viability Assessment in the BioMAP Diversity Plus: CASM3C Assay (AID 2283050);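 also: total protein by SRB staining as cytotoxicity measure in parallel cultures; cells exposed to compound for 24 h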
CONDITION NOTES: primary human coronary artery smooth muscle cells
Active and inactive are the calls of the source. The calls were made as follows: active = hit-call score of the fitted dose curve at least 0.9, where 1 is the maximum; inactive = score below 0.9.
Can you answer with just one of these options? active, inactive

Prompt line: Given C=COC(=O)C(C)(C)CCCCCC , state the outcome it received in this test.
Response line: active

Prompt line: Given CCCCC=O , state the outcome it received in this test.
Response line: inactive

Prompt line: Given COCN(COC)c1nc(N(COC)COC)nc(N(COC)COC)n1 , state the outcome it received in this test.
Response line: inactive

Prompt line: Given CN(CCO)S(=O)(=O)C(F)(F)C(F)(F)C(F)(F)C(F)(F)C(F)(F)C(F)(F)C(F)(F)C(F)(F)F , state the outcome it received in this test.
Response line: inactive

Prompt line: Given Clc1ccc(Nc2nnc(Cc3ccncc3)c3ccccc23)cc1 , state the outcome it received in this test.
Response line: inactive

Prompt line: Given CCCCCc1ccc(O)cc1 , state the outcome it received in this test.
Response line: active

Prompt line: Given CCCCCCCCCCCC , state the outcome it received in this test.
Response line: inactive

Prompt line: Given O=C(c1ccccc1)c1ccccc1 , state the outcome it received in this test.
Response line: inactive

Prompt line: Given Oc1c(Cl)cc(Cl)cc1Sc1cc(Cl)cc(Cl)c1O , state the outcome it received in this test.
Response line: active

Prompt line: Given O=C1NS(=O)(=O)c2ccccc21 , state the outcome it received in this test.
Response line: inactive

Prompt line: Given CCCCCCCCCCCCOS(=O)(=O)O , state the outcome it received in this test.
Response line: inactive

Prompt line: Given O=C(O)CCC(F)(F)C(F)(F)C(F)(F)C(F)(F)C(F)(F)F , state the outcome it received in this test.
Response line: inactive

====

Read-out: Matrix Metallopeptidase 1 (MMP1), MMP1 (gene 4312)
TEST: BSK_hDFCGF_MMP1: BioMAP Diversity Plus: hDFCGF Assay for Matrix Metallopeptidase 1 (MMP1) Biomarker Activity (AID 2283064)
CONDITION NOTES: primary human foreskin fibroblasts; actives raise or lower the signal
Calls of active or inactive are those of the source. The calls were made as follows: active = hit-call score of the fitted dose curve at least 0.9, where 1 is the maximum; inactive = score below 0.9.
Can you answer with just one of these options? 1 (yes) = active, 0 (no) = inactive

Prompt line: Given C=CC(=C)CC/C=C(\C)CCC=C(C)C , state the outcome it received in this test.
Response line: 0 (no)

Prompt line: Given CS(=O)(=O)c1ccc([C@@H](CC2CCCC2)C(=O)Nc2cnccn2)cc1Cl , state the outcome it received in this test.
Response line: 0 (no)

Prompt line: Given CCCCC=O , state the outcome it received in this test.
Response line: 0 (no)

Prompt line: Given COc1cccc(O)c1 , state the outcome it received in this test.
Response line: 0 (no)

Prompt line: Given CCCCCCCCCCCCCCCCCC[N+](C)(C)Cc1ccccc1 , state the outcome it received in this test.
Response line: 1 (yes)

Prompt line: Given CN(CCO)S(=O)(=O)C(F)(F)C(F)(F)C(F)(F)C(F)(F)C(F)(F)C(F)(F)C(F)(F)C(F)(F)F , state the outcome it received in this test.
Response line: 0 (no)

Prompt line: Given O=P(O)(O)CCC(F)(F)C(F)(F)C(F)(F)C(F)(F)C(F)(F)C(F)(F)C(F)(F)C(F)(F)F , state the outcome it received in this test.
Response line: 0 (no)

Prompt line: Given O=C(CCCN1CCC(O)(c2ccc(Cl)cc2)CC1)c1ccc(F)cc1 , state the outcome it received in this test.
Response line: 0 (no)

Prompt line: Given O=S(=O)(O)C(F)(F)C(F)(F)C(F)(F)C(F)(F)C(F)(F)C(F)(F)C(F)(F)C(F)(F)C(F)(F)C(F)(F)F , state the outcome it received in this test.
Response line: 0 (no)

Prompt line: Given O=P(O)(O)CCC(F)(F)C(F)(F)C(F)(F)C(F)(F)C(F)(F)C(F)(F)F , state the outcome it received in this test.
Response line: 0 (no)

Prompt line: Given O=C(c1ccccc1)c1ccccc1 , state the outcome it received in this test.
Response line: 0 (no)

Prompt line: Given C=CC(C)(CCC=C(C)C)OC(C)=O (stereo not given) , state the outcome it received in this test.
Response line: 0 (no)

Prompt line: Given CC1=NN(c2ccccc2)C(=O)C1 , state the outcome it received in this test.
Response line: 0 (no)

Prompt line: Given O=C1c2ccc(O)c(O)c2C(=O)c2c(O)ccc(O)c21 , state the outcome it received in this test.
Response line: 0 (no)

Prompt line: Given CN(C)c1ccc(C(=C2C=CC(=[N+](C)C)C=C2)c2ccccc2)cc1 , state the outcome it received in this test.
Response line: 1 (yes)

Prompt line: Given C=CC(=O)OCCC(F)(F)C(F)(F)C(F)(F)C(F)(F)C(F)(F)C(F)(F)C(F)(F)C(F)(F)F , state the outcome it received in this test.
Response line: 0 (no)

Prompt line: Given Oc1cc2ccccc2cc1O , state the outcome it received in this test.
Response line: 0 (no)

Prompt line: Given Oc1ccc(Cc2ccccc2O)cc1 , state the outcome it received in this test.
Response line: 0 (no)

Prompt line: Given CCCCC(CC)C(=O)O (stereo not given) , state the outcome it received in this test.
Response line: 0 (no)

Prompt line: Given CCOC(=O)CN[C@@H](C(=O)N1CC[C@H]1C(=O)NCc1ccc(/C(N)=N/O)cc1)C1CCCCC1 , state the outcome it received in this test.
Response line: 0 (no)
